- Test system: Galium (catchweed bedstraw, Galium aparine)
- assay-comment: Test A postemergence
- Format: in vivo
- experimental-setup: Postemergence, 500 g ai/ha; 0 to 100 scale where 0 is no effect and 100 is complete control
Given measured Plant response rating, Galium, output 1.0 if it is greater than or equal to 20 and 0.0 if not.

> print(dat)
                                    compound  label
 1  O=C(Nc1cccc(F)c1F)C1C(=O)N(C2C=CCCC2)CC1c1cccc(C(F)(F)F)c1 (stereo not drawn)    0.0
 2  O=C1NCC(c2ccsc2Cl)C1C(=O)Nc1ccccc1F (stereo not drawn)    0.0
 3  CN1CC(c2ccc(Br)cc2)C(C(=O)Nc2cccc(F)c2F)C1=O (stereo not drawn)    1.0
 4  CN1CC(c2ccc(OC(F)F)cc2)C(C(=O)Nc2cccc(F)c2F)C1=O (stereo not drawn)    1.0
 5  O=C1NCC(c2cccc(C(F)(F)F)c2F)C1C(=O)Nc1cccc(F)c1F (stereo not drawn)    1.0
 6  O=C1NCC(c2c(F)cccc2F)C1C(=O)Nc1ccccc1F (racemic)    0.0
 7  COCc1cccc(C2CNC(=O)C2C(=O)Nc2cccc(F)c2F)c1 (stereo not drawn)    1.0
 8  C=C(Cl)CN1CC(c2cccc(C(F)(F)F)c2)C(C(=O)Nc2cccc(F)c2F)C1=O (stereo not drawn)    0.0
 9  O=C1NCC(c2cccc(C(F)(F)F)c2F)C1C(=O)Nc1ccc(F)cc1F (stereo not drawn)    1.0
10  COCc1cccc(C2CNC(=O)C2C(=O)Nc2ccccc2F)c1 (stereo not drawn)    1.0
11  O=C1NCC(c2cc(C(F)(F)F)cc(C(F)(F)F)c2)C1C(=O)Nc1ccccc1F (stereo not drawn)    0.0
